targetSystem: UniProt Q15077
Sequence (Q15077 whole entry): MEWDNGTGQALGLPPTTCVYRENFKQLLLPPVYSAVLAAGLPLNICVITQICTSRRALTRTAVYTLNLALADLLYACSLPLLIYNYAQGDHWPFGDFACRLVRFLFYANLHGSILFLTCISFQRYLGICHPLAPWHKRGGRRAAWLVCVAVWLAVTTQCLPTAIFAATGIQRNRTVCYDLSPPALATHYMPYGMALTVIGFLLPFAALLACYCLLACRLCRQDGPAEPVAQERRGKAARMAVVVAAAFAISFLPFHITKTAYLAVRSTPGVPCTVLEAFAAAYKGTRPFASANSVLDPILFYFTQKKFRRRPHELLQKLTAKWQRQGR
experiment: Activation of P2Y6 receptor: receptor induced Ca2+ changes with fluo-4 in 1321N1 astrocytoma cells
Assay type: cell-based
Design: expressed in transfected cells; host or cells: 1321N1 human astrocytoma cells
setupConditions: 1321N1 human astrocytoma cells expressing P2Y6; fluo-4 Ca2+
observedProperty: pEC50
Convention used: pEC50 is expressed as -log10 of the molar concentration.

# return recorded pEC50 for input `O=c1ccn([C@@H]2O[C@H](COP(=O)(O)OP(=O)(O)O)[C@@H](O)[C@H]2O)c(=O)n1Cc1noc2ccccc12`
7.92

* * *

experiment: Oral bioavailability
setupConditions: in vivo
observedProperty: bioavailability
Number first, unit second.

# return recorded bioavailability for input O=c1ccn([C@@H]2O[C@H](CO)[C@H](O)C2O)c(=O)n1Cc1noc2ccccc12 (stereo partly shown)
72.2%

* * *

experiment: Half-life in human whole blood
Type: in vitro ADME
observedProperty: half-life (h)
Field format: number, assumed h, no unit text.

# return recorded half-life for input O=c1ccn([C@@H]2O[C@H](CO)[C@H](O)C2O)c(=O)n1Cc1noc2ccccc12 (stereo partly shown)
16.4
